# experimental.system: soluble IGF-1 receptor (human) (UniProt P08069)
# method.description: phage ELISA
endpoint.name: ratio over background

> print(dat)
                                     binder  observed.result
1   NVFVSFYDAIDQLVCQRIGC [20E2A-4-G11-IGFR]              3.3
2  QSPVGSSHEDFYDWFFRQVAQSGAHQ [H2CA-3-D6-IGFR]                9
3         EGSGFYGYFFSLLGLQG [NNRPγ-4-A9-IR]               10
4  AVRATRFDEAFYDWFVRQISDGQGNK [H2CA-4-F6-IGFR]              7.3
5  GCWEWQKWHGASDPFYHKLSELGGCS [B6Hα-3-F10-IR]              8.8
6  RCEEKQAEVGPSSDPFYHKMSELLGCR [B6Hα-3-E9-IR]             24.2
7   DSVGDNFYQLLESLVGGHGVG [20E2B-3-D6-IGFR]             17.8
